pIC50 reference
target: human HPK1 protein (Homo sapiens, UniProt Q92918)
Construct: recombinant human HPK1 protein (a.a. 1-346) was expressed in Sf9 insect cells; GST (N); purchased Signalchem M23-11G; host or cells: Sf9 insect cells (baculovirus)
Sequence (Q92918 1-346): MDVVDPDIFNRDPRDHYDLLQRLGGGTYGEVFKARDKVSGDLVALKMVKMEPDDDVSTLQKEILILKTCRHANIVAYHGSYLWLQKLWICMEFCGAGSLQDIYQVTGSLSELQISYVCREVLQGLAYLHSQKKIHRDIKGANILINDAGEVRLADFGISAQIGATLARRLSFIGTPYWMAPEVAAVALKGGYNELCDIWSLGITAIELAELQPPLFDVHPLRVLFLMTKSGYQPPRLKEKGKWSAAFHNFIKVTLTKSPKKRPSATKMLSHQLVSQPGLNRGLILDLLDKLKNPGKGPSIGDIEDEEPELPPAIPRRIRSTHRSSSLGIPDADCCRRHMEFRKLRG
protocol_text: Human HPK1 protein TR-FRET assay
Type: biochemical
run_conditions: 1 mM ATP, Table 19
pIC50: −log10 of the molar value.

In the examples that follow, each entry is paired with its recorded pIC50.
• Cc1cc2c(Oc3ccc4c(c3)[C@H](C)N(C(=O)Nc3cnc5c(c3)CCCN5C3CCN(C)CC3)CC4)ccnc2[nH]1 = 5.00 to 5.30
• CCN1CCN(Cc2ccc(NC(=O)N3CCc4ncc(Oc5ccnc6[nH]ncc56)cc4C3C)cc2C(F)(F)F)CC1 (single isomer, unassigned) [VIII-5] = 5.30 to 6.30
• CCN1CCN(Cc2ccc(NC(=O)N3Cc4cc(Oc5ccnc6[nH]c(C)cc56)ccc4C(O)C3)cc2C(F)(F)F)CC1 (stereo not drawn) = > 6.30
• CCN1CCN(Cc2ccc(NC(=O)N3CCc4cc(C)c(Oc5ccnc6[nH]ccc56)cc4C3)cc2C(F)(F)F)CC1 = > 6.30
• CCN1CCN(Cc2ccc(NC(=O)N3CCc4cc(F)c(Oc5ccnn6cccc56)cc4C3C)cc2C(F)(F)F)CC1 (stereo not drawn) [IV-30] = 5.30 to 6.30

Per the records, this compound ( Cc1cc2c(Oc3ccc4c(c3)[C@H](C)N(C(=O)Nc3cnc(OC5CCN(C)CC5)c(C(F)(F)F)c3)CC4)ccnc2[nH]1 ) has pIC50 equal to > 6.30

Recorded pIC50 (compound CCN1CCN(Cc2ccc(NC(=O)N3CCc4c(C)cc(Oc5ccnc6[nH]ccc56)cc4C3)cc2C(F)(F)F)CC1 ): > 6.30

The reported pIC50 of the compound CCN1CCN(Cc2ccc(NC(=O)N3Cc4cc(Oc5ccnc6[nH]c(C)cc56)cnc4C(C)C3)cc2C(F)(F)F)CC1 (stereo not drawn) [VII-3] was > 6.30

Entry CCN1CCN(Cc2ccc(NC(=O)N3CCc4ccc(Oc5ccnc(NC)c5)cc4C3)cc2C(F)(F)F)CC1 ; pIC50 = > 6.30

Values compiled from patent US20210139484A1.
